- experimental_system: T1, Cynomolgus CD3εδ Fc heterodimer (Cy CD3ε Fc / CD3δ Fc-HIS) (cynomolgus, UniProt Q95LI8 22-100)
- T1 chain 1: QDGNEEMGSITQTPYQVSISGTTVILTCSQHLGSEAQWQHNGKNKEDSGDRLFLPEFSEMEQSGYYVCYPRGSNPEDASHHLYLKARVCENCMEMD
- T1 chain 2: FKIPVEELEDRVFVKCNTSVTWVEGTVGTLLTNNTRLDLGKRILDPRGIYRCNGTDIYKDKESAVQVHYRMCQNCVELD
- assay_protocol: BLI (Octet), IgG on AHC sensor, pH 6.0
Please respond with reported koff for every item in the list.
Value expressed in s⁻¹; do not type the unit.

**Query** Any idea what koff was measured for SAD10319_P05_A02 (ADI-57396) (antibody, V domains shown, IgG; also called Ab122) VH: QVQLVQSGAEVKKPGASVKVSCKASGYTFASYDMHWVRQAPGQRLEWMGWIDAGTGATVYSQKFQGRVTITRDTSASTAYMELSSLRSEDTAVYYCARDAYGHYFYDHWGQGTLVTVSS VL: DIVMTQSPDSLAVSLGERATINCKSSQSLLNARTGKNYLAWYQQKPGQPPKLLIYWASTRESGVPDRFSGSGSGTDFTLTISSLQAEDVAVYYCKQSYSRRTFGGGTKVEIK ?
**Result** 0.0246

**Query** Any idea what koff was measured for SAD10320_P02_B04 (ADI-57273) (antibody, V domains shown, IgG; ADI-57273 is also printed for Ab114; also called Ab70) VH: QVQLVQSGAEVKKPGASVKVSCKASGFNIKDYYMHWVRQAPGQRLERMGWIDLENANTIYDAKFQGRVTITRDTSASTAYMELSSLRSEDTAVYYCARDAYGHGFYDVWGQGTLVTVSS VL: DIVMTQSPDSLAVSLGERATINCKSSQSLLNARTGKNYLAWYQQKPGQPPKLLIYWASTRESGVPDRFSGSGSGTDFTLTISSLQAEDVAVYYCKQSYGHRTFGGGTKVEIK ?
**Result** 0.0176

**Query** Any idea what koff was measured for SAD10319_P02_F06 (ADI-57324) (antibody, V domains shown, IgG; also called Ab13) VH: QVQLVQSGAEVKKPGASVKVSCKASGYTFLSYAMHWVRQAPGQRLERMGWINPSTGATDYSQKFQGRVTITRDTSASTAYMELSSLRSEDTAVYYCARDAYGHYFYDVWGQGTLVTVSS VL: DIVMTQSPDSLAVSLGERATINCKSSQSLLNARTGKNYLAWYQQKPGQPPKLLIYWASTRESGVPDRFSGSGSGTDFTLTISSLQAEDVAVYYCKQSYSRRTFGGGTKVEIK ?
**Result** 0.0122

**Query** Any idea what koff was measured for SAD10319_P04_C12 (ADI-57341) (antibody, V domains shown, IgG; also called Ab41) VH: QVQLVQSGAEVKKPGASVKVSCKASGYTFTAYDMHWVRQAPGQRLERMGWIDPITGNTKYSQKFQGRVTITRDTSASTAYMELSSLRSEDTAVYYCAHDAYGHYFYDVWGQGTLVTVSS VL: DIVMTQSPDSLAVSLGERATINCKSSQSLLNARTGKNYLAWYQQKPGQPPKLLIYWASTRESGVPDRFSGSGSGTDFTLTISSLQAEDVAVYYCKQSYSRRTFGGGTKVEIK ?
**Result** 0.0196

**Query** Any idea what koff was measured for SAD10320_P02_G06 (ADI-57371) (antibody, V domains shown, IgG; also called Ab88) VH: QVQLVQSGAEVKKPGASVKVSCKASGFNIKDYYMHWVRQAPGQRLDWMGWIDLENANTIYDAKFQGRVTITRDTSASTAYMELSSLRSEDTAVYYCARDAYGRHFYDVWGQGTLVTVSS VL: DIVMTQSPDSLAVSLGERATINCKSSQSLLNARTRTNYLAWYQQKPGQPPKLLIYWASTRESGVPDRFSGSGSGTDFTLTISSLQAEDVAVYYCKQSYSRRTFGGGTKVEIK ?
**Result** 0.00387

**Query** Any idea what koff was measured for SAD10320_P01_F01 (ADI-57345) (antibody, V domains shown, IgG; also called Ab50) VH: QVQLVQSGAEVKKPGASVKVSCKASGFNIKDYYMHWVRQAPGQRPAWMGWIDLENANTIYDAKFQGRVTITRDTSASTAYMELSSLRSEDTAVYYCARDASHRYFYDVWGQGTLVTVSS VL: DIVMTQSPDSLAVSLGERATINCKSSQSLLNARTGKNYLAWYQQKPGQPPKLLIYWASTRESGVPDRFSGSGSGTDFTLTISSLQAEDVAVYYCGHSYSRRTFGGGTKVEIK ?
**Result** 0.00642

**Query** Any idea what koff was measured for SAD10319_P02_B05 (ADI-57314) (antibody, V domains shown, IgG; also called Ab256) VH: QVQLVQSGAEVKKPGASVKVSCKASGYTFADYAMHWVRQAPGQRLEWMGSINAGTGNTYYSQKFQGRVTITRDTSASTAYMELSSLRSEDTAVYYCARDAYGHYFYDVWGQGTLVTVSS VL: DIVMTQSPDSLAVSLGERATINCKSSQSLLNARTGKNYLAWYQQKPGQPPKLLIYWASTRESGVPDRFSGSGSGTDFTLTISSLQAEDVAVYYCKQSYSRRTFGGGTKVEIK ?
**Result** 0.0388

**Query** Any idea what koff was measured for SAD10320_P04_C10 (ADI-57383) (antibody, V domains shown, IgG; also called Ab104) VH: QVQLVQSGAEVKKPGASVKVSCKASGFNIKDYYMHWVRQAPGQRLEWMGWIDLENANTIYDAKFQGRVTITRDTSASTAYMELSSLRSEDTAVYYCARDAYGHAFYDVWGQGTLVTVSS VL: DIVMTQSPDSLAVSLGERATINCKSSQSLLNARTGKNYLAWYQQKPGQPPKLLIYWASTRESGVPDRFSGSGSGTDFTLTISSLQAEDVAVYYCKQSYHQRTFGGGTKVEIK ?
**Result** 0.0187

**Query** Any idea what koff was measured for SAD10319_P03_D08 (ADI-57327) (antibody, V domains shown, IgG; also called Ab20) VH: QVQLVQSGAEVKKPGASVKVSCKASGYTFYSYEMHWVRQAPGQRLDWMGWINPQTGATKYSQKFQGRVTITRDTSASTAYMELSSLRSEDTAVYYCARDAYHHYFYDVWGQGTLVTVSS VL: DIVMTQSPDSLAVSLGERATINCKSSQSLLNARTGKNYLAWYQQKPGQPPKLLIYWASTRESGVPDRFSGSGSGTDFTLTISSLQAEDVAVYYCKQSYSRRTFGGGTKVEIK ?
**Result** 0.02

**Query** Any idea what koff was measured for SAD10320_P02_A05 (ADI-57363) (antibody, V domains shown) VH: QVQLVQSGAEVKKPGASVKVSCKASGFNIKDYYMHWVRQAPGQRLEWMGWIDLENANTIYDAKFQGRVTITRDTSASTAYMELSSLRSEDTAVYYCARDAYGHMFYDVWGQGTLVTVSS VL: DIVMTQSPDSLAVSLGERATINCKSSQSLLNARPGKNYLAWYQQKPGQPPKLLIYWASTRESGVPDRFSGSGSGTDFTLTISSLQAEDVAVYYCKQSYHMRTFGGGTKVEIK ?
**Result** 0.0168
